System: Vero E6 infected with SARS-CoV-2
method.description: morphology score (similarity to uninfected cells); higher = more like uninfected cells
experimental.setup: 24 h
endpoint.name: morphology score
# respond with the number and nothing more

[
  {
    "compound": "C[C@]1(O)C[C@@H](c2nc(-c3ccc4ccc(-c5ccccc5)nc4c3)c3c(N)nccn32)C1 [linsitinib] (10 µM)",
    "morphology score": 0.275
  },
  {
    "compound": "Nc1ccc(S(=O)(=O)Nc2ccc(Cl)nn2)cc1 [sulfachlorpyridazine] (10 µM)",
    "morphology score": 0.104
  },
  {
    "compound": "O=C(c1ccc(Nc2nccc(-c3cc4ccccc4s3)n2)cc1)N1CCC(N2CCCC2)CC1 (0.833333 µM)",
    "morphology score": 0.629
  },
  {
    "compound": "CCCCOC(=O)c1ccc(N)cc1 [butamben] (10 µM)",
    "morphology score": 0.102
  },
  {
    "compound": "COc1ccc(Nc2nccc(NCCO)n2)cc1 [cardiogenol-C] (10 µM)",
    "morphology score": 0.0849
  },
  {
    "compound": "CCOc1nc2cccc(C(=O)O)c2n1Cc1ccc(-c2ccccc2-c2noc(=O)[nH]2)cc1 [azilsartan] (10 µM)",
    "morphology score": 0.0851
  },
  {
    "compound": "O=C1CC[C@@]2(O)[C@H]3Cc4ccc(O)c5c4[C@@]2(CCN3CC2CC2)[C@H]1O5 (10 µM)",
    "morphology score": -0.0472
  },
  {
    "compound": "CCOCC(O)COc1ccc(NC(=O)CC[S+](C)C)cc1 (configuration not stated) [suplatast] (10 µM)",
    "morphology score": 0.0407
  },
  {
    "compound": "C/C(=C\\C(=O)Nc1ccccc1C(=O)O)c1ccc2ccccc2c1 (10 µM)",
    "morphology score": 0.23
  },
  {
    "compound": "OC(CNCC(O)C1CCc2cc(F)ccc2O1)C1CCc2cc(F)ccc2O1 (configuration not stated) [nebivolol] (10 µM)",
    "morphology score": 0.0502
  }
]

Value of morphology score reported for the compound Cc1noc(NS(=O)(=O)c2cccc3c(N(C)C)cccc23)c1C (10 µM) is 0.115

###

Reported inhibition of SARS-CoV-2 cytopathic effect values follow for various compounds
System: Vero E6 infected with SARS-CoV-2
method.description: inhibition of SARS-CoV-2 cytopathic effect; higher = more antiviral protection, active = above 15
experimental.setup: 10000 nM; 48 h
Just the number in %, nothing appended.

[
  {
    "compound": "COc1nc(C)nc(Cl)c1NC1=NCCN1",
    "measured": -1.74
  },
  {
    "compound": "CCOC(=O)Nc1ccc(NCc2ccc(F)cc2)nc1N",
    "measured": 1.37
  },
  {
    "compound": "OC[C@H]1OC(O)[C@H](O)[C@@H](O)[C@@H]1O (some centres undefined)",
    "measured": -1.07
  },
  {
    "compound": "C[C@H](NC(=O)Cc1cc(F)cc(F)c1)C(=O)N[C@@H]1C(=O)N(C)c2ccccc2-c2ccccc21",
    "measured": -8.97
  },
  {
    "compound": "CCCCCCCCC(=O)N[C@H](CN1CCCC1)[C@H](O)c1ccc2c(c1)OCCO2",
    "measured": 9.9
  }
]

So the reported inhibition of SARS-CoV-2 cytopathic effect for COc1ncc2cc(C(=O)Nc3cc(C(=O)NCc4cccc(Cl)c4)ccc3Cl)c(=O)[nH]c2n1 , on Vero E6 infected with SARS-CoV-2, turned out to be 2.62

So the reported inhibition of SARS-CoV-2 cytopathic effect for Cc1cc(O)c2c(=O)c3c(O)cc(O)c4c5c(O)cc(O)c6c(=O)c7c(O)cc(C)c8c1c2c(c34)c(c78)c65 , on Vero E6 infected with SARS-CoV-2, turned out to be -4.81

So the reported inhibition of SARS-CoV-2 cytopathic effect for CC1(C)CC(=O)C(C2C3=C(CC(C)(C)CC3=O)Oc3ccccc32)C(=O)C1 (centres undefined) , on Vero E6 infected with SARS-CoV-2, turned out to be -2.4

So the reported inhibition of SARS-CoV-2 cytopathic effect for C=CCN(C)CCCCCCOc1ccc(C(=O)c2ccc(Br)cc2)c(F)c1 , on Vero E6 infected with SARS-CoV-2, turned out to be 13.8

So the reported inhibition of SARS-CoV-2 cytopathic effect for COC1(C[S@@+]([O-])c2ccccc2)CCN(CCc2c[nH]c3ccc(F)cc23)CC1 , on Vero E6 infected with SARS-CoV-2, turned out to be -2.13

So the reported inhibition of SARS-CoV-2 cytopathic effect for COc1cc(NC(=O)c2ccc(-c3ccc(Cl)cc3)o2)cc(OC)c1 , on Vero E6 infected with SARS-CoV-2, turned out to be 0.71

So the reported inhibition of SARS-CoV-2 cytopathic effect for O=C(NCc1ccc2c(c1)OCO2)c1c(Cl)cccc1Cl , on Vero E6 infected with SARS-CoV-2, turned out to be -3.23

So the reported inhibition of SARS-CoV-2 cytopathic effect for O=C(c1ccc(-c2ccc(Cl)cc2)o1)N(Cc1ccccn1)c1ccc(N2CCNCC2)cc1 , on Vero E6 infected with SARS-CoV-2, turned out to be 43.8

So the reported inhibition of SARS-CoV-2 cytopathic effect for C[N+]1(C)[C@@H]2CC[C@H]1C[C@@H](OC(=O)C(O)c1ccccc1)C2 (some centres undefined) [homatropine-methylbromide] , on Vero E6 infected with SARS-CoV-2, turned out to be 0.96

###

Reported SARS-CoV-2 infection rate values follow for various molecules
Tested on: Vero E6 infected with SARS-CoV-2
method.description: SARS-CoV-2 infection rate relative to infected DMSO; higher = more infection, active = 60 or less
experimental.setup: 24 h
Just the number in %, nothing appended.

Worked cases, SARS-CoV-2 infection rate given:
[
  {
    "molecule": "N#Cc1ccc(NCCNCC(=O)N2CCC[C@H]2C#N)nc1 (10 µM)",
    "system.under.test": "Vero E6 infected with SARS-CoV-2",
    "measured": 114
  },
  {
    "molecule": "Cc1ccccc1-n1c(Cn2ncc3c(N)ncnc32)nc2cccc(C)c2c1=O (10 µM)",
    "system.under.test": "Vero E6 infected with SARS-CoV-2",
    "measured": 45
  }
]

Value of SARS-CoV-2 infection rate reported for the molecule O=C(O)/C=C/c1ccc(Cn2ccnc2)cc1 [ozagrel] (10 µM) is 92

Value of SARS-CoV-2 infection rate reported for the molecule CN(C)CC(c1ccc(O)cc1)C1(O)CCCCC1 (stereo unspecified) [desvenlafaxine] (10 µM) is 106

Value of SARS-CoV-2 infection rate reported for the molecule CON(C)C(=O)N1N=C(c2cc(F)ccc2F)S[C@@]1(CCCN)c1ccccc1 [filanesib] (0.833333 µM) is 99

Value of SARS-CoV-2 infection rate reported for the molecule Oc1cc2c(cc1O)[C@H]1c3ccccc3CN[C@@H]1CC2 (racemic) [dihydrexidine] (10 µM) is 101

Value of SARS-CoV-2 infection rate reported for the molecule CO[C@@H]1COCC[C@@H]1N[C@@H]1CC[C@@](C(=O)N2CCc3ncc(C(F)(F)F)cc3C2)(C(C)C)C1 (10 µM) is 113

Value of SARS-CoV-2 infection rate reported for the molecule O=C(Nc1cccc(C(F)(F)F)c1)Nc1cc(S(=O)(=O)NC2CC2)ccc1-c1ccsc1 (10 µM) is 102

###

Reported inhibition of SARS-CoV-2 cytopathic effect values follow for various molecules
Test system: Vero E6 infected with SARS-CoV-2
method.description: inhibition of SARS-CoV-2 cytopathic effect; higher = more antiviral protection, active = above 15
experimental.setup: 100 nM; 48 h
Just the number in %, nothing appended.

Worked cases, inhibition of SARS-CoV-2 cytopathic effect given:
[
  {
    "molecule": "C[C@H](NCc1ccc(OCc2ccccc2F)cc1)C(N)=O [priralfinamide]",
    "system.under.test": "Vero E6 infected with SARS-CoV-2",
    "units.label": "%",
    "measured": 6.27
  },
  {
    "molecule": "COc1ccc(OC)c(CN(C(C)=O)c2cc(F)ccc2Oc2ccccc2)c1",
    "system.under.test": "Vero E6 infected with SARS-CoV-2",
    "units.label": "%",
    "measured": 4.26
  },
  {
    "molecule": "CC#CCn1c(N2CCC[C@@H](N)C2)nc2c1c(=O)n(Cc1nc(C)c3ccccc3n1)c(=O)n2C",
    "system.under.test": "Vero E6 infected with SARS-CoV-2",
    "units.label": "%",
    "measured": -0.93
  }
]

Value of inhibition of SARS-CoV-2 cytopathic effect reported for the molecule COc1ccc2[nH]c([S+]([O-])Cc3ncc(C)c(OC)c3C)nc2n1 (stereo not given) is -7.87
